Molecular target: T1, human Claudin18.1 (CLDN18.1), full length, on cells (human, UniProt P56856 1-261)
T1 construct: HEK293-CLDN18.1 cells carry a fusion with green fluorescent protein (ZsGreen); CHO-K1-CLDN18.1 cells carry pcDNA3.1-CLDN18.1; The cell line is named under assay; also called CLDN18.1-FL; HEK293-CLDN18.1 cells
Test: FACS on CHO-K1-CLDN18.1 cells
Excerpt: Human gastric cancer cells NUGC4 and stably transfected cells CHO-K1-CLDN18.1 (prepared in Example 5) were used respectively, to verify the specificity and affinity of the anti-CLDN18.2 antibodies above at the cellular level by FAGS technology. After antibody affinity maturation and screening in vitro, each antibody can bind to the CLDN18.2 target on NUGC4 cells, but not to CHO-K1-CLDN18.1 cells, as compared with the original 3CHI antibody.
assay metric: MFI (CLDN18.1) (MFI)
Please respond with the number in MFI and leave the unit unwritten.

State, in one line, measured MFI (CLDN18.1) of 309CHI (antibody, human IgG1, V domains shown, chimeric with the constant region of human IgG1) VH: EVKLVESGGGLVQPGGSLKLSCAASGFGFSDYGMAWVRQAPRKGPEWVAFISNSAYSIYYADTVTGRFTISRENAKNTLYLEMSSLRSEDTAMYYCARLGYGNSFAYWGQGTLVTVSA VL: DIVMTQSPSSLTVTAGEKVTMSCKSSQSLLNSGNQKNYLTWYQQKPGQPPKLLIYWASTRESGVPDRFTGSGSGTDFTLTISSVQAEDLAVYYCQNELFYPLTFGAGTKLELK
78

State, in one line, measured MFI (CLDN18.1) of 301CHI (antibody, V domains shown, chimeric with the constant region of human IgG1) VH: EVKLVESGGGLVQPGGSLKLSCAASGFTFSDYGMAWVRQAPRKGPEWVAFISNLAYSIYYADTVTGRFTISRENAKNTLYLEMSSLRSEDTAMYYCARLGYGNSFAYWGQGTLVTVSA VL: DIVMTQSPSSLTVTAGEKVTMSCKSSQSLLNSGNQKNYLTWYQQKPGQPPKLLIYWASTRESGVPDRFTGSGSGTDFTLTISSVQAEDLAVYYCQNNYYYPLTFGAGTKLELK
114

State, in one line, measured MFI (CLDN18.1) of 315CHI (antibody, human IgG1, V domains shown, chimeric with the constant region of human IgG1) VH: EVKLVESGGGLVQPGGSLKLSCAASGFTFSDYGMAWVRQAPRKGPEWVAFISNLAYSIYYADTVTGRFTISRENAKNTLYLEMSSLRSEDTAMYYCARLGRGNSFAYWGQGTLVTVSA VL: DIVMTQSPSSLTVTAGEKVTMSCKSSQSLLNSGNQKNYLTWYQQKPGQPPKLLIYWASTRESGVPDRFTGSGSGTDFTLTISSVQAEDLAVYYCQNELFYPLTFGAGTKLELK
65
